Target: BARHL2 DBD T278I/T285N (HMX3) (human, UniProt Q9NY43 227-293, T278I;T285N)
Sequence (Q9NY43 227-293 T278I/T285N): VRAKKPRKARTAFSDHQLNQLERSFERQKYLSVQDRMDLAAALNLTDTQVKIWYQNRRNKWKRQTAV
Assay: HT-SELEX; SELEX buffer: 10.4 mM Tris-HCl pH 7.5, 51.4 mM NaCl, 1.4 mM MgCl2, 4% glycerol, 100 uM EGTA, 0.7 mM DTT, 3.7 ug/ml poly-dI-dC, 1.4 uM ZnSO4; room temperature (2); high values mean tight binding
Conditions: protein: recombinant; dsDNA, one strand shown
Reported binding signal is given for each of the following sequences.
measurement label: binding signal

| seq | test value |
| --- | --- |
| TAATGG | 1.9 fold enrichment |
| TAAGTG | 8.6 fold enrichment |
| TAAGCG | 2.4 fold enrichment |
| TAACCG | 2 fold enrichment |
| TAATTG | 17.6 fold enrichment |

====

Target: BARHL2 DBD ctrl (unmutated, SELEX) (human, UniProt Q9NY43 227-293)
Sequence (Q9NY43 227-293, change not shown): as the sequence (Q9NY43 227-293 T278I/T285N) above, with I52T, N59T counted along it
Experiment: HT-SELEX; SELEX buffer: 10.4 mM Tris-HCl pH 7.5, 51.4 mM NaCl, 1.4 mM MgCl2, 4% glycerol, 100 uM EGTA, 0.7 mM DTT, 3.7 ug/ml poly-dI-dC, 1.4 uM ZnSO4; room temperature (2); high values mean tight binding
Conditions: protein: recombinant; dsDNA, one strand shown
measurement label: log10 binding signal (log10 of the value in fold enrichment)

| seq | study target | log10 binding signal |
| --- | --- | --- |
| TAAGCG | BARHL2 DBD ctrl (unmutated, SELEX) (human, UniProt Q9NY43 227-293) | 0.48 |
| TAACCG | BARHL2 DBD ctrl (unmutated, SELEX) (human, UniProt Q9NY43 227-293) | 0.32 |
| TAAATG | BARHL2 DBD ctrl (unmutated, SELEX) (human, UniProt Q9NY43 227-293) | 1.10 |
| TAATCG | BARHL2 DBD ctrl (unmutated, SELEX) (human, UniProt Q9NY43 227-293) | 0.99 |
| TAATTG | BARHL2 DBD ctrl (unmutated, SELEX) (human, UniProt Q9NY43 227-293) | 1.64 |

====

Reported binding signal is given for each of the following sequences.
Target: BARHL2 DBD T278I (NKX1.2) (human, UniProt Q9NY43 227-293, T278I)
Sequence (Q9NY43 227-293 T278I): as the sequence (Q9NY43 227-293 T278I/T285N) above, with N59T counted along it
Assay: HT-SELEX; SELEX buffer: 10.4 mM Tris-HCl pH 7.5, 51.4 mM NaCl, 1.4 mM MgCl2, 4% glycerol, 100 uM EGTA, 0.7 mM DTT, 3.7 ug/ml poly-dI-dC, 1.4 uM ZnSO4; room temperature (2); high values mean tight binding
Settings: protein: recombinant; dsDNA, one strand shown

| seq | binding signal, fold enrichment |
| --- | --- |
| TAAGCG | 2.4 |
| TAAACG | 6.6 |
| TAACCG | 1.5 |
| TAATCG | 9.4 |
| TAAGTG | 6.1 |

====

Reported binding signal is given for each of the following sequences.
Biological target: BARHL2 DBD T278V/T285A (ALX4) (human, UniProt Q9NY43 227-293, T278V;T285A)
Sequence (Q9NY43 227-293 T278V/T285A): as the sequence (Q9NY43 227-293 T278I/T285N) above, with I52V, N59A counted along it
Test: HT-SELEX; SELEX buffer: 10.4 mM Tris-HCl pH 7.5, 51.4 mM NaCl, 1.4 mM MgCl2, 4% glycerol, 100 uM EGTA, 0.7 mM DTT, 3.7 ug/ml poly-dI-dC, 1.4 uM ZnSO4; room temperature (2); high values mean tight binding
Settings: protein: recombinant; dsDNA, one strand shown

| seq | binding signal (fold enrichment) |
| --- | --- |
| TAAACG | 3.3 |
| TAATTG | 4.9 |
| TAAATG | 2.2 |
| TAATCG | 5.1 |
| TAACCG | 1.9 |
| TAATGG | 3.7 |
| TAAGTG | 3.7 |

====

Target: BARHL2 DBD T278V (EMX1) (human, UniProt Q9NY43 227-293, T278V)
Sequence (Q9NY43 227-293 T278V): as the sequence (Q9NY43 227-293 T278I/T285N) above, with I52V, N59T counted along it
Experiment: HT-SELEX; SELEX buffer: 10.4 mM Tris-HCl pH 7.5, 51.4 mM NaCl, 1.4 mM MgCl2, 4% glycerol, 100 uM EGTA, 0.7 mM DTT, 3.7 ug/ml poly-dI-dC, 1.4 uM ZnSO4; room temperature (2); high values mean tight binding
Settings: protein: recombinant; dsDNA, one strand shown

| seq | binding signal |
| --- | --- |
| TAATTG | 11.2 fold enrichment |
| TAAGTG | 5.9 fold enrichment |
| TAATGG | 7.6 fold enrichment |
| TAAGCG | 3.2 fold enrichment |

====

Molecular target: BARHL2 DBD T285A (LBX1) (human, UniProt Q9NY43 227-293, T285A)
Sequence (Q9NY43 227-293 T285A): as the sequence (Q9NY43 227-293 T278I/T285N) above, with I52T, N59A counted along it
Experiment: HT-SELEX; SELEX buffer: 10.4 mM Tris-HCl pH 7.5, 51.4 mM NaCl, 1.4 mM MgCl2, 4% glycerol, 100 uM EGTA, 0.7 mM DTT, 3.7 ug/ml poly-dI-dC, 1.4 uM ZnSO4; room temperature (2); high values mean tight binding
Settings: protein: recombinant; dsDNA, one strand shown

| seq | scale unit | binding signal |
| --- | --- | --- |
| TAACCG | fold enrichment | 3.5 |
| TAATCG | fold enrichment | 9 |
| TAATGG | fold enrichment | 4.7 |
| TAAGTG | fold enrichment | 6.1 |
| TAATTG | fold enrichment | 8 |
| TAAGCG | fold enrichment | 2.9 |
